Each recorded value in this set is attributed to patent US20210061908A1.

Recorded relative fluorescent units (RFU), ELISA by entry
Tested On: T1, extracellular domain (ECD) of human IGSF11 (VSIG3), biotinylated (human, UniProt Q5DX21 23-241, biotinylated (site not stated))
T1 construct: also called human IGSF11 protein
T1 sequence: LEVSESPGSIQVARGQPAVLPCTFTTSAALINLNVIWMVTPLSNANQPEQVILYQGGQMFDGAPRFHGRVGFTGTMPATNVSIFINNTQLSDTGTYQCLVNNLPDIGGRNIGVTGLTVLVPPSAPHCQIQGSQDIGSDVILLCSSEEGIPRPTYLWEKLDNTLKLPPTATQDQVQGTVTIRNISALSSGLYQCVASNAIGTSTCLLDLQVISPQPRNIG
Assay Details: ELISA, scFv; RFU grade (*** >1.0, ** 0.5-1.0, * 0.1-0.5)

A-017 (scFv format) (scFv, V domains shown, scFv) VH: QVQLVQSGAEVKKPGASVKVSCKASGYTFTGYYMHWVRQAPGQGLEWMGWINPNSGNTGYAQKFQGRVTMTRNTSISTAYMELSSLRSEDTAVYYCARGGQQQLVLDDYWGQGTLVTVSS VL: DIVLTQSPASLSASVGDRITITCQASQDIRHHLNWFQHKPGKAPKLLISDSSNLETGVPSRFSGSGSGTDFSFTISRLQPEDIATYYCQQYDSLPRTFGQGTKLEIK | 0.5 to 1 rfu

Shifting focus to the binder that follows.
// sample A-028 (scFv format) (scFv, V domains shown, scFv) VH: QVQLVQSGAEVKKPGSSVKVSCKASGGTFSSYAISWVRQAPGQGLEWMGGIIPIFGTANYAQKFQGRVTITADESTSTAYMELSSLRSEDTAVYYCARVGVEYQLLWYFDYWGQGTLVTVSS VL: DIQMTQSPSSLSASVGDRVTLTCRTSQTISNYLNWYQQKPGKAPKLLVYAASNLQSWVPSRFSGSGSGTDFTLTISSLQPEDFATYYCQQSYNASFGGGTKVEFK , its relative fluorescent units (RFU), ELISA was 0.1 to 0.5 rfu
